The reported measurements were obtained from patent US20250382355A1.

assayed_system: SARS-CoV-2 Gamma P.1 spike on pseudovirus (SARS-CoV-2)
test_method_notes: cell-based or functional assay
Doc: threshold 6 nM (exclusive). Items with pseudovirus neutralization IC50 beneath it return 1.0; others return 0.0.

Prompt: In the record for 9B2 VHH-Fc (Fc fusion) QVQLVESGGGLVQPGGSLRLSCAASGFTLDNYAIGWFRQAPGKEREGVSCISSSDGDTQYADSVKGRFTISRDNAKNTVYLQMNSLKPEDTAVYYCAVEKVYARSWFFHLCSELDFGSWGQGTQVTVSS , is pseudovirus neutralization IC50 less than 6 nM?
Response: 0.0

Prompt: In the record for 5A6 VHH-Fc (Fc fusion) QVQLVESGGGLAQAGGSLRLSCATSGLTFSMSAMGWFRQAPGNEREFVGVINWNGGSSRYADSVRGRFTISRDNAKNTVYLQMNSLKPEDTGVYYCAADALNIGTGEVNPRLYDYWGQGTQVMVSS , is pseudovirus neutralization IC50 less than 6 nM?
Response: 1.0

Prompt: In the record for 1E4 VHH-Fc (Fc fusion) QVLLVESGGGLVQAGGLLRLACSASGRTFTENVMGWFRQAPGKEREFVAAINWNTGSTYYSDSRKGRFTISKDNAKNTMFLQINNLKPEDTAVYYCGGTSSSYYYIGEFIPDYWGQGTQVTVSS , is pseudovirus neutralization IC50 less than 6 nM?
Response: 1.0

Prompt: In the record for 19C10 VHH-Fc (Fc fusion) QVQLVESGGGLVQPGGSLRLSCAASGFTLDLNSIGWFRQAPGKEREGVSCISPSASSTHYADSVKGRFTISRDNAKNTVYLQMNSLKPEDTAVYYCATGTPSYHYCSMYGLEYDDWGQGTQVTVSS , is pseudovirus neutralization IC50 less than 6 nM?
Response: 1.0

Prompt: In the record for 10B8 VHH-Fc (Fc fusion) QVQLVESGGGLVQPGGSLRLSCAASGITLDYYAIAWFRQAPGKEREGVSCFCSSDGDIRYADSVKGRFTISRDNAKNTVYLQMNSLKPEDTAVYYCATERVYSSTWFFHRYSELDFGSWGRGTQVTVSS , is pseudovirus neutralization IC50 less than 6 nM?
Response: 1.0

Prompt: In the record for 1A11 VHH-Fc (Fc fusion) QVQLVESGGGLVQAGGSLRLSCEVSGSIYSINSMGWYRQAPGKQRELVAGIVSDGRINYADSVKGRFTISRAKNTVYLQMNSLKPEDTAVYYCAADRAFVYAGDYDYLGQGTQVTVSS , is pseudovirus neutralization IC50 less than 6 nM?
Response: 0.0

Prompt: In the record for 3D4 VHH-Fc (Fc fusion) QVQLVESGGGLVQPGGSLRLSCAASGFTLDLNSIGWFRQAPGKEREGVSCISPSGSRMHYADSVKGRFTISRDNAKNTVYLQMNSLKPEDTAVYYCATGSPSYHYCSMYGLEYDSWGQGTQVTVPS , is pseudovirus neutralization IC50 less than 6 nM?
Response: 1.0
